Target: Amyloid-beta precursor protein (Homo sapiens, UniProt P05067)
Sequence (P05067 whole entry, the tested form may be a part): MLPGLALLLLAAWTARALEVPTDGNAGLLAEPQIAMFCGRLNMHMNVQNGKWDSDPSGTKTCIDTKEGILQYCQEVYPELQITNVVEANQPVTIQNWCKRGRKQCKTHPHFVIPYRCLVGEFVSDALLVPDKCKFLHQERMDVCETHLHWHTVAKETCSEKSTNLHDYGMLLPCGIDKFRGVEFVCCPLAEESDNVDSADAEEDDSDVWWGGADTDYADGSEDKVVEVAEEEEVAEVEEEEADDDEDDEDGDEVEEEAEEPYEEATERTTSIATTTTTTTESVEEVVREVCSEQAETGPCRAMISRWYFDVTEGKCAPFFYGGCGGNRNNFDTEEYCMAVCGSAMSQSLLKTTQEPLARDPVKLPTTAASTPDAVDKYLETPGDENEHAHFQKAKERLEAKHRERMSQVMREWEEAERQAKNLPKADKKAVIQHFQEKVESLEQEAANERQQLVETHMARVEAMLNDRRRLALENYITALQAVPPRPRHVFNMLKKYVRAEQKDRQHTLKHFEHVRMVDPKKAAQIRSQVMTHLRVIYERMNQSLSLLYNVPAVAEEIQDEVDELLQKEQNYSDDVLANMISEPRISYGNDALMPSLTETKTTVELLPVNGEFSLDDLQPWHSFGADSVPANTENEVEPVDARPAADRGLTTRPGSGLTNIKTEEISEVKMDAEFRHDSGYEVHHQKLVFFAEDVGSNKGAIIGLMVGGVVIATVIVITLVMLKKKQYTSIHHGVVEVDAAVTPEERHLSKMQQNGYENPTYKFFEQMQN
Test: Inhibition of HFIP-pretreated amyloid beta (1 to 42 residues) (unknown origin) aggregation at 1:10 protein to compound ratio after 24 hrs by ThT fluorescence assay relative to control
Conditions: concentration not given here
Below, each of the compounds is paired with its reported inhibition value.
The reply should be a number in %, with the unit left off.

A selection of reference data follows.
## Task What inhibition value was documented for this compound, c1cc2ccc(Nc3ccc4cc[nH]c4n3)nc2[nH]1 ?
## Result 75

## Task What inhibition value was documented for this compound, c1cc2ncc(Nc3ccc4cc[nH]c4n3)cc2[nH]1 ?
## Result 98

## Task What inhibition value was documented for this compound, c1cc2cc(Nc3ccc4cc[nH]c4n3)cnc2[nH]1 ?
## Result 86

Others:
## Task What inhibition value was documented for this compound, c1cc2ccc(Nc3ccc4cc[nH]c4n3)cc2[nH]1 ?
## Result 75

## Task What inhibition value was documented for this compound, c1ccc(Nc2ccc3cc[nH]c3n2)nc1 ?
## Result 71

## Task What inhibition value was documented for this compound, c1cc2ccc(NC3CCNCC3)nc2[nH]1 ?
## Result 48

## Task What inhibition value was documented for this compound, c1cc2cc(Nc3ccc4cc[nH]c4c3)ccc2[nH]1 ?
## Result 94
